TEST TARGET: UniProt P22001
TEST: Inhibition of Kv1.3 ion channel. Measured in the Rb_Kv assay: [86Rb+] efflux from CHO cells stably transfected with Kv1.3 channel.
Type: functional, cell-based
pIC50: −log10 of the molar value.
REPORTED PROPERTY: pIC50

Some solved entries appear below for comparison.
| CHEM SMILES | pIC50 |
| --- | --- |
| CCC(=O)N[C@H]1CC[C@@](CNC(=O)c2ccccc2OC)(c2ccccc2)CC1 | 6.68 |
| COCCNC(=O)O[C@H]1CC[C@](CNC(=O)c2ccccc2OC)(c2ccccc2)CC1 | 6.85 |

a. COc1ccccc1C(=O)NC[C@]1(c2ccccc2)CC[C@H](NC(=O)CCc2ccccc2)CC1
b. C=CCOC(=O)N[C@H]1CC[C@@](CNC(=O)c2ccccc2OC)(c2ccccc2)CC1
Exam item: Form: Entry with minimum pIC50 (choose one): a / b Which one? Tell me its label.
Marked response: b

----------
TEST TARGET: Potassium voltage-gated channel subfamily A member 3 (Homo sapiens, UniProt P22001)
Sequence (P22001 whole entry): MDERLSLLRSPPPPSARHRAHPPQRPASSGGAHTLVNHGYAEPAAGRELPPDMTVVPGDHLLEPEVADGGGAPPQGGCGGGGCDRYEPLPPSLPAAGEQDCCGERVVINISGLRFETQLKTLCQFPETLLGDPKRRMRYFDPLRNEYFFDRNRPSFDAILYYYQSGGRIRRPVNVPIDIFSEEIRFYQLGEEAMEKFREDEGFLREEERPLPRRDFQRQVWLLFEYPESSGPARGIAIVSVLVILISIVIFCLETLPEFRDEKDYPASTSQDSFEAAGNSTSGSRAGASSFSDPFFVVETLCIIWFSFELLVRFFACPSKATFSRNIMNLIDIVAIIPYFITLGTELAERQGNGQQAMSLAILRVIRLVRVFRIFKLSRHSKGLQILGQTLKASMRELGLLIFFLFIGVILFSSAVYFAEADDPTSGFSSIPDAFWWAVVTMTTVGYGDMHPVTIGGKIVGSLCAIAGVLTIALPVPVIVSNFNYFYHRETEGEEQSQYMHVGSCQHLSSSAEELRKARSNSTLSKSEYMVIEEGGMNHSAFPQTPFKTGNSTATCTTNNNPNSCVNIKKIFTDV
TEST: Inhibition of Kv1.3 ion channel. Measured in the Rb_Kv assay: [86Rb+] efflux from CHO cells stably transfected with Kv1.3 channel.
Assay type: functional, cell-based
Readings of IC50 for the listed compounds

| CHEM SMILES | REPORTED PROPERTY | RECORDED MEASUREMENT |
| --- | --- | --- |
| COc1cccc(C(=O)NCC2(c3ccccc3)CCC(=O)CC2)c1 | IC50 | > 30 µM |
| COc1ccccc1C(=O)N(C)CC1(c2ccccc2)CCC(=O)CC1 | IC50 | > 30 µM |
| COc1ccccc1C(=O)NC[C@]1(c2ccccc2)CC[C@@H](OC(=O)Nc2ccccc2)CC1 | IC50 | > 30 µM |
| COc1ccccc1C(=O)NC[C@]1(c2ccccc2)CC[C@@H](NC(=O)c2ccc(Br)cc2)CC1 | IC50 | > 30 µM |

Exam item: Return IC50 (reported value) for this compound: `COc1ccccc1C(=O)N(C)CC1(c2ccccc2)CCNCC1`
Marked response: > 30 µM

Exam item: Read off the recorded IC50 for `COc1ccccc1C(=O)NC[C@]1(c2ccccc2)CC[C@@H](NC(=O)c2cccc(Br)c2)CC1`
Marked response: > 30 µM
